# System: E. coli TESEC Mtb Alr
# measurement-protocol: growth (OD600 after 10 h); higher = more growth (less inhibition)
# condition-description: arabinose 10000000 nM; compound 0.1 mM; raw OD600 reference: median of DMSO wells […], cell-free background 0.052
Structures can show the parent of a compound that is named as a salt.
Mark NO for growth values under 0.2, and YES for everything at or above.

CN1CCN(C(c2ccccc2)c2ccc(Cl)cc2)CC1 (stereo not given) [Chlorcyclizine hydrochloride]; YES

Query :: Hi team, for CC(=O)c1ccc2c(c1)N(CCCN1CCC(CCO)CC1)c1ccccc1S2 [Piperacetazine] , is the recorded growth at or above 0.2?
Result :: YES

Query :: Textbook exercise: given the entry CCCc1nc(C)c2c(=O)nc(-c3cc(S(=O)(=O)N4CCN(CC)CC4)ccc3OCC)[nH]n12 [Vardenafil] , state whether its growth is greater than or equal to 0.2.
Result :: YES

Query :: Dear colleague, could you confirm whether OC[C@H]1O[C@@H](Oc2ccc(O)cc2)[C@H](O)[C@@H](O)[C@@H]1O [Arbutin] has growth at or above 0.2?
Result :: YES

Query :: Hello, I need to know if CCn1cc(C(=O)O)c(=O)c2cnc(N3CCCC3)nc21 [Piromidic acid] has measured growth not below 0.2. Thanks!
Result :: NO

----------
# Tested on: E. coli TESEC Mtb DapB
# measurement-protocol: growth (OD600 after 10 h); higher = more growth (less inhibition)
# condition-description: arabinose induction (level): Low; compound 0.1 mM; raw OD600 reference: median of DMSO wells 0.227, cell-free background 0.041
Counter-ions that a name gives are not always drawn.
Would you please tag the item criterion met when its growth is 0.2 or above, and criterion not met when it is below?

N=C(N)NCCN1CCCCCCC1 [Guanethidine sulfate]; criterion met
CCN1CCN(c2cc3c(cc2F)c(=O)c(C(=O)O)cn3C2CC2)CC1 [Enrofloxacin]; criterion not met
COc1ccnc(C[S+]([O-])c2nc3cc(OC(F)F)ccc3[nH]2)c1OC (configuration not stated) [Pantoprazole sodium]; criterion not met

Now consider the entry below.
Query :: Determine whether measured growth meets or exceeds 0.2 for CC(C)CC(=O)N[C@H](C(=O)N[C@H](C(=O)N[C@@H](CC(C)C)[C@@H](O)CC(=O)N[C@@H](C)C(=O)N[C@@H](CC(C)C)[C@@H](O)CC(=O)O)C(C)C)C(C)C [Pepstatin A]
Result :: criterion met

----------
# Test system: E. coli TESEC Mtb Alr
# measurement-protocol: growth (OD600 after 10 h); higher = more growth (less inhibition)
# condition-description: arabinose 100000 nM; compound 0.1 mM; raw OD600 reference: median of DMSO wells 0.201, cell-free background 0.041
Structures can show the parent of a compound that is named as a salt.
Exercise: for every item that follows, state its recorded growth.
One number for each entry.

Would you please look over these solved cases?
C=C1c2cccc(O)c2C(O)=C2C(=O)[C@]3(O)C(O)=C(C(N)=O)C(=O)[C@@H](N(C)C)[C@@H]3[C@@H](O)[C@H]12 [Methacycline hydrochloride]; 0.0492
COc1ccc2[nH]c([S+]([O-])Cc3ncc(C)c(OC)c3C)nc2c1 (stereo unspecified); 0.168
CO/N=C(\C(=O)N[C@@H]1C(=O)N2C(C(=O)O)=C(C[N+]3(C)CCCC3)CS[C@H]12)c1csc(N)n1 [Cefepime hydrochloride]; 0.0386
CC1(C)O[C@@H]2C[C@H]3[C@@H]4CCC5=CC(=O)CC[C@]5(C)[C@@]4(F)[C@@H](O)C[C@]3(C)[C@]2(C(=O)CCl)O1 [Halcinonide]; 0.181
CN1C(C(=O)Nc2ccccn2)=C(O)c2ccccc2S1(=O)=O; 0.18

Your task in this section: give growth for each listed record.
1. CN(C)CCOc1ccc(/C(=C(/CCCl)c2ccccc2)c2ccccc2)cc1
2. N#Cc1cc(NC(=O)C(=O)O)c(Cl)c(NC(=O)C(=O)O)c1 [Lodoxamide]
3. NCCC[C@H](N)CC(=O)N[C@H]1CNC(=O)[C@H]([C@H]2C[C@H](O)NC(N)=N2)NC(=O)/C(=C/NC(N)=O)NC(=O)[C@H](CO)NC(=O)[C@H](CO)NC1=O [Viomycin sulfate]
4. CN1C2CCCC1CC(NC(=O)c1nn(C)c3ccccc13)C2 (stereo unspecified)
5. COc1cccc(N(C)C(=S)Oc2ccc3c(c2)CCCC3)n1 [Liranaftate]
6. CC(=O)Nc1c(I)c(C(=O)N[C@H]2C(O)O[C@H](CO)[C@@H](O)[C@@H]2O)c(I)c(N(C)C(C)=O)c1I (stereo partly specified) [Metrizamide]
7. CNCCCC12CCC(c3ccccc31)c1ccccc12 [Maprotiline hydrochloride]
8. CN1CCN(CC(=O)N2c3ccccc3C(=O)Nc3cccnc32)CC1 [Pirenzepine dihydrochloride]

Result ::
1. 0.0409
2. 0.173
3. 0.138
4. 0.171
5. 0.167
6. 0.238
7. 0.246
8. 0.193

Can you give me growth for all of these, one by one?
1. Nc1c2c(nc3ccccc13)CCCC2 [Tacrine hydrochloride]
2. CC(=O)Nc1ccc(O)cc1
3. CCN(CC)CCOCCOC(=O)C1(c2ccccc2)CCCC1 [Carbetapentane citrate]
4. CC1(C)S[C@@H]2[C@H](NC(=O)[C@H](N)c3ccc(O)cc3)C(=O)N2[C@H]1C(=O)O
5. CCCc1nn(C)c2c(=O)[nH]c(-c3cc(S(=O)(=O)N4CCN(C)CC4)ccc3OCC)nc12
6. Cc1cc(O)c(C(=O)N[C@@H](C(=O)N[C@@H]2C(=O)N3C(C(=O)O)=C(CSc4nnnn4C)CS[C@H]23)c2ccc(O)cc2)cn1 [Cefpiramide]

Result ::
1. 0.214
2. 0.202
3. 0.191
4. 0.211
5. 0.186
6. 0.217

----------
# System: E. coli TESEC Mtb Alr
# measurement-protocol: growth (OD600 after 10 h); higher = more growth (less inhibition)
# condition-description: arabinose 100000 nM; compound 0.1 mM; raw OD600 reference: median of DMSO wells 0.201, cell-free background 0.041
Counter-ions that a name gives are not always drawn.
Give MET when the value for growth is at least 0.2. Give NOT MET when it is less.

As a guide, the following entries are already answered.
CCOc1ccc2c(c1)C(C)=CC(C)(C)N2 [Ethoxyquin]; NOT MET
O=C(O)CCCC[C@@H]1SC[C@@H]2NC(=O)N[C@@H]21 [Biotin]; MET
CN(C)CCN1C(=O)c2ccccc2N(C)c2ccccc21 [Dibenzepine hydrochloride]; NOT MET
CC(C)(C)NC(=O)[C@@H]1CN(Cc2cccnc2)CCN1C[C@@H](O)C[C@@H](Cc1ccccc1)C(=O)N[C@H]1c2ccccc2C[C@H]1O [Indinavir sulfate]; MET
Cc1cccc(C)c1OCC(C)N (configuration not stated) [Mexiletine hydrochloride]; MET
COC(=O)C1=C(C)NC(C)=C(C(=O)OC(C)C)C1c1cccc2nonc12 (configuration not stated) [Isradipine]; NOT MET
COc1ccc2c(c1)C(=O)N(CCc1ccc(S(=O)(=O)NC(=O)NC3CCCCC3)cc1)C(=O)C2(C)C [Gliquidone]; NOT MET
N=C(N)NS(=O)(=O)c1ccc(N)cc1 [Sulfaguanidine]; MET

Query :: Decide: growth of COc1cccc2c1C(=O)c1c(O)c3c(c(O)c1C2=O)C[C@@](O)(C(=O)CO)C[C@@H]3O[C@H]1C[C@H](N)[C@H](O)[C@H](C)O1 [Doxorubicin hydrochloride] >= 0.2?
Result :: NOT MET

Query :: Does growth meet or surpass 0.2 for COc1cc2nc(N3CCN(C(=O)C4COc5ccccc5O4)CC3)nc(N)c2cc1OC (configuration not stated) [Doxazosin mesylate] ?
Result :: NOT MET

Query :: Would you say Cc1cc(C(C)(C)C)cc(C)c1CC1=NCCN1 [Xylometazoline hydrochloride] shows growth at minimum 0.2?
Result :: MET

Query :: Hello, I need to know if C[C@@H](O[C@H]1OCCN(Cc2n[nH]c(=O)[nH]2)[C@H]1c1ccc(F)cc1)c1cc(C(F)(F)F)cc(C(F)(F)F)c1 [Aprepitant] has measured growth not below 0.2. Thanks!
Result :: NOT MET

----------
Kindly supply the reported growth values for the records listed here.
# System: E. coli TESEC Mtb DapB
# measurement-protocol: growth (OD600 after 10 h); higher = more growth (less inhibition)
# condition-description: arabinose induction (level): Low; compound 0.1 mM; raw OD600 reference: median of DMSO wells 0.227, cell-free background 0.041
Structures can show the parent of a compound that is named as a salt.

Look at each compound and report its growth.
1. CN(C)CCOC(=O)COc1ccc(Cl)cc1 [Meclofenoxate hydrochloride]
2. NS(=O)(=O)c1cc2c(cc1Cl)N=CNS2(=O)=O [Chlorothiazide]
3. CC[N+](CC)(CC)CCOc1cccc(OCC[N+](CC)(CC)CC)c1OCC[N+](CC)(CC)CC [Gallamine triethiodide]
4. CCN(CCCCOC(=O)c1ccc(OC)c(OC)c1)C(C)Cc1ccc(OC)cc1 (configuration not stated) [Mebeverine hydrochloride]
5. C=C(NC(=O)C(=C)NC(=O)c1csc(C2=N[C@@H]3c4csc(n4)[C@H]4NC(=O)c5csc(n5)[C@H]([C@](C)(O)[C@@H](C)O)NC(=O)[C@H]5CSC(=N5)/C(=C/C)NC(=O)[C@H]([C@@H](C)O)NC(=O)c5csc(n5)[C@]3(CC2)NC(=O)[C@H](C)NC(=O)C(=C)NC(=O)[C@H](C)NC(=O)[C@H]([C@@H](C)CC)N[C@@H]2C=Cc3c([C@H](C)O)cc(nc3[C@H]2O)C(=O)O[C@@H]4C)n1)C(N)=O
6. CN(C)CCN1C(=O)c2ccccc2N(C)c2ccccc21 [Dibenzepine hydrochloride]
7. CN1CCN(c2c(F)cc3c(=O)c(C(=O)O)cn(CCF)c3c2F)CC1
8. CN(C)CC/C=C1/c2ccccc2Sc2ccc(Cl)cc21 [Chlorprothixene hydrochloride]

Result ::
1: 0.204; 2: 0.239; 3: 0.251; 4: 0.252; 5: 0.194; 6: 0.187; 7: 0.0599; 8: 0.0463

src = the supplement of paper PMC9262897
